Target: LCK tyrosine kinase (Homo sapiens, UniProt P06239, C224D/P223M)
Construct: starting from amino acid residue 223 to the end of the protein at residue 509; made in house; host or cells: insect cells
Sequence (P06239 223-509 P223M/C224D): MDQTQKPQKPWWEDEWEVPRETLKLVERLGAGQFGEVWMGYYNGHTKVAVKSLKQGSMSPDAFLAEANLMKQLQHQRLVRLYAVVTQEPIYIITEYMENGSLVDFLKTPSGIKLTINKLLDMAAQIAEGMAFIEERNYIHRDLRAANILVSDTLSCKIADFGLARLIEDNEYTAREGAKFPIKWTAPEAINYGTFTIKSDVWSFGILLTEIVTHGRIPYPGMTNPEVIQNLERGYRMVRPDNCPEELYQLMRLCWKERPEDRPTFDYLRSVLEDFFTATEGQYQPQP
Test: LCK spectrophotometric assay;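 note: recombinant LCK kinase activity on poly(E4Y1), ADP formation coupled through PK/LDH to NADH oxidation, followed as absorbance loss at 340 nm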
Format: biochemical
Details: @ 1 μM; read-out: LCK-P percent inhibition
resultType: inhibition at 1 µM (%)

Below, each entry is followed by its recorded inhibition at 1 µM result.
{"molecule": "Cl.O=C(Nc1ccc(N2CCOCC2)c(C(F)(F)F)c1)c1ccc(F)c(OCc2cncc3ccccc23)c1", "valueUnit": "%", "inhibition at 1 µM": 87}
{"molecule": "COc1ccc(Nc2cc(COc3cc(C(=O)Nc4ccc(-n5ccnc5)c(C(F)(F)F)c4)ccc3F)[nH]n2)cn1", "valueUnit": "%", "inhibition at 1 µM": 38}
{"molecule": "CC(C)(C)c1cc(C(=O)Nc2cccc(CSc3ncnc4[nH]ncc34)c2)ccc1O", "valueUnit": "%", "inhibition at 1 µM": 22}
{"molecule": "CC(C)(C)c1cc(C(=O)Nc2cccc(OCc3cncc(Br)c3)c2)ccc1O", "valueUnit": "%", "inhibition at 1 µM": 59}

P = O=C(Nc1cc(Cl)c(N2CCCC2)c(Cl)c1)c1ccc(F)c(OCc2cccnc2)c1
Q = Cc1cc(NC(=O)c2cccc(C3CC3c3cc(Nc4ccccc4)n[nH]3)c2)ccc1C(C)C (stereo not shown)
Problem: I need your help: which of the pair P , Q has higher inhibition at 1 µM? Refer to your chosen item by its label in the answer.
Result: P
(P: 59%, Q: 41%)

Cited source for all entries: patent US6635641B2
